The measurements presented in this section are drawn from patent US20210079109A1.

Overview of recorded kon for various binders
Biological target: T1, recombinant human CD63 extracellular loop 2 expressed with a C-terminal human Fc tag (human)
T1 construct: also called hCD63 EC loop 2-hFc; human CD63 EC loop 2-Fc
T1 sequence (chain, as listed by the source limits assumed): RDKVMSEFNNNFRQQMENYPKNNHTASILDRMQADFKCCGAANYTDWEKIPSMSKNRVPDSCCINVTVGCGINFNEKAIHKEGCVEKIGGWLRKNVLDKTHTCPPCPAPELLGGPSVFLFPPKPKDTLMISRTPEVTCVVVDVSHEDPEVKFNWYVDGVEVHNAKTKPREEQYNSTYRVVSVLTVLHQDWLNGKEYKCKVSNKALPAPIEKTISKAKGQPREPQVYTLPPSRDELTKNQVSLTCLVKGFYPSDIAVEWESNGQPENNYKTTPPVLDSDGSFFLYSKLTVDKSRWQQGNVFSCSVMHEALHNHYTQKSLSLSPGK
Experiment: SPR Biacore, mAb captured, 37C
Respond numerically; units are M⁻¹ s⁻¹ and should not be typed.

[[record]]
binder = "H2M12385N (antibody, V domains shown, also called H2bM12385N; H2bM12385) VH: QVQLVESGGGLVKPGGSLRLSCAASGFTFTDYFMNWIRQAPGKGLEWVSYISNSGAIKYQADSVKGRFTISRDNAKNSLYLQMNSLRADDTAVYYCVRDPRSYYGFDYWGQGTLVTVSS VL: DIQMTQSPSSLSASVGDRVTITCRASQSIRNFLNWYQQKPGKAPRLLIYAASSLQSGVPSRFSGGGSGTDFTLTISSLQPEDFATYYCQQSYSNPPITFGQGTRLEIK"
endpointlabel = "kon"
testresult = 827000


Assign kon to the following record: H1M12451N (antibody, V domains shown) VH: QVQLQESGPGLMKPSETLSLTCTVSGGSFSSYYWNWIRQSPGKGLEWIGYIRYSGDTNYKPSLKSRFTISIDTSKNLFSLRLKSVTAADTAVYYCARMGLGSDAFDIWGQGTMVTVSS VL: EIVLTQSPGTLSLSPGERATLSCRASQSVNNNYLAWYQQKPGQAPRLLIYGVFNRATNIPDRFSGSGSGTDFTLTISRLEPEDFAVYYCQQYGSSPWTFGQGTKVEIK
651000
